- assayedTarget: Trace amine-associated receptor 1 (Homo sapiens)
- assayInfo: TAAR1 desensitization potency of agonists, dose response, counter-screen for TAAR1 agonist project, cell-based, fluorescence, late stage (AID 743231)
- assayConditions: hTAAR1 cells
Activity calls are given as the source filed them. The limit is not given here; nearly all actives have IC50 up to about 7.9 µM.
measurementKind: IC50

- molecule: "O=C(Nc1cccc2ccccc12)N1CCc2ccccc2C1"
  dataValue: "> 29900 nM (inactive)"
- molecule: "O=C(Nc1ccncc1)Nc1ccc(F)cc1"
  dataValue: "2430 nM"
- molecule: "CC(=NCCc1ccccc1)C1CCOC1=O (stereo not drawn)"
  dataValue: "2840 nM"
- molecule: "O=C(Nc1ccccc1)Nc1ccncc1"
  dataValue: "2740 nM"
- molecule: "Cc1cc(N(C)C)nc(Nc2ccccc2)n1"
  dataValue: "210 nM"
- molecule: "O=C(C(=O)N1CCc2ccccc2C1)c1cn(CC(=O)N2CCCCC2)c2ccccc12"
  dataValue: "2690 nM"
- molecule: "O=C(Nc1cccnc1)Nc1cccc(F)c1"
  dataValue: "6520 nM"
- molecule: "Nc1nc(Nc2cccc(F)c2)nc2ccccc12"
  dataValue: "1280 nM"
- molecule: "Cc1cc(C)n(C(CC(=O)N2CCc3ccccc3C2)C(=O)O)n1 (stereo not drawn)"
  dataValue: "1220 nM"
- molecule: "Cc1ccc(NC(=O)CCN2CCc3ccccc3C2)cc1"
  dataValue: "8270 nM"
- molecule: "CC1(C)CCCN(C(=O)c2coc(=O)c(Br)c2)C1"
  dataValue: "2550 nM"
- molecule: "O=C(CCN1CCC(c2ccccc2)C1)c1ccc2c(c1)OCCO2 (stereo not drawn)"
  dataValue: "856 nM"
- molecule: "OCCNc1nc(Nc2ccc(O)cc2)nc2ccccc12"
  dataValue: "1860 nM"
- molecule: "Nc1nc(Nc2ccccc2)nc2ccccc12"
  dataValue: "642 nM"
- molecule: "CCOC(=O)C(NC(C)=O)(N1CCc2ccccc2C1)C(F)(F)F (stereo not drawn)"
  dataValue: "639 nM"
- molecule: "c1ccc(CCn2nnnc2C(c2cccs2)N2CCN(Cc3ccc4c(c3)OCO4)CC2)cc1 (stereo not drawn)"
  dataValue: "1340 nM"
- molecule: "COc1cc(C(=O)CCN2CCC(c3ccccc3)C2)cc(OC)c1OC (stereo not drawn)"
  dataValue: "1520 nM"
- molecule: "OCCNc1nc(Nc2cccc(O)c2)nc2ccccc12"
  dataValue: "244 nM"

Ref: PubChem BioAssay AID743231
